target: Adenosine receptor A2a (Homo sapiens, UniProt P29274)
Sequence (P29274 whole entry): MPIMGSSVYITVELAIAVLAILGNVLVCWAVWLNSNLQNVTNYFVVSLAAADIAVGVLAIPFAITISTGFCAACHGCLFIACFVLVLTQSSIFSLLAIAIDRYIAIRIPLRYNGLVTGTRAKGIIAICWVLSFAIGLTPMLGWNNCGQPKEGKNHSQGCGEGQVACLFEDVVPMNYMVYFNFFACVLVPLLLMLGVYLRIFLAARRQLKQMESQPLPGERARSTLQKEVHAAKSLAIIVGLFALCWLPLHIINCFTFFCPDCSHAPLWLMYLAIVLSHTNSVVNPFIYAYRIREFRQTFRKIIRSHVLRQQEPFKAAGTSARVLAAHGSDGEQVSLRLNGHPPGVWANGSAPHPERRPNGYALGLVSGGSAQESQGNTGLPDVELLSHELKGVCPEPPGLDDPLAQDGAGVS
Label T when Ki < 100 nM; otherwise F.

// known answers, use as guide
INSERT INTO results (compound, answer_label) VALUES
  ('N#Cc1sc(NC(=O)c2ccco2)nc1-c1ccccc1', 'F'),
  ('O=C(Nc1nc(-c2ccccc2)c(-c2ncon2)s1)c1ccco1', 'F'),
  ('COCCOc1ccc(N2CCN(CCn3ncc4c3nc(N)n3nc(-c5ccco5)nc43)CC2)cc1 [PRELADENANT]', 'T'),
  ('CC(=O)Nc1nc(-c2ccccc2)c(-c2nc(C)no2)s1', 'F'),
  ('Cc1nc(-c2sc(NC(=O)c3ccccc3)nc2-c2ccccc2)no1', 'T');

Moving on to the next compound.
Could you please tell me whether Ki recorded for Cc1noc(-c2sc(NC(=O)c3ccccc3)nc2-c2ccccc2)n1 is less than 100 nM? F

###

target: UniProt:P30542
Sequence (P30542 whole entry): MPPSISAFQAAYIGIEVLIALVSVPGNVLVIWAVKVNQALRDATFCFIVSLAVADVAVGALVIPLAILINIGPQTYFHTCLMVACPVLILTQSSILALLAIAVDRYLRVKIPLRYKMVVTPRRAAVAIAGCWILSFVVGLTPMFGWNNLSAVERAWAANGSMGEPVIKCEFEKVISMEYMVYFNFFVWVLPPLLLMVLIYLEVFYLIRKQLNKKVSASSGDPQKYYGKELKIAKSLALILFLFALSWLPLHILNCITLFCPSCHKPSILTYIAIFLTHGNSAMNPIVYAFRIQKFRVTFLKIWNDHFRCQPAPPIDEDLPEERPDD
pKi: −log10 of the molar value.
Label y when pKi >= 7; otherwise n.

INSERT INTO assay_data (molecule_smiles, answer_label) VALUES
  ('Cc1noc(-c2sc(NC(=O)Cc3ccccc3)nc2-c2ccccc2)n1', 'n'),
  ('O=C(Nc1nc(-c2ccccc2)c(-c2ncon2)s1)C1CC1', 'n');

Moving on to the next compound.
Please tell me: is the compound Cc1noc(-c2sc(NC(=O)C3CC3)nc2-c2ccccc2)n1 at or over 7 in terms of pKi? y

###

Lab note: log10 of Ki readings collected with Adenosine receptor A2a (Homo sapiens, UniProt P29274) for the following compounds.
Field: value | Transform: log10 | Quantity: Ki | Unit: µM

Would you please look over these solved cases?
INSERT INTO assay_data (molecule_smiles, value) VALUES
  ('CCOC(=O)c1sc(NC(=O)c2ccco2)nc1-c1ccccc1', -1.89),
  ('Cc1nc(-c2sc(NC(=O)Cc3ccccc3)nc2-c2ccccc2)no1', -1.60),
  ('Cc1noc(-c2sc(NC(=O)C3CC3)nc2-c2ccccc2)n1', -1.92),
  ('CC(C)CC(=O)Nc1nc(-c2ccccc2)c(-c2ncon2)s1', -0.47),
  ('Cc1nc(-c2sc(NC(=O)C3CC3)nc2-c2ccccc2)no1', -1.55);

Consider the additional compound presented here.
// fetch Adenosine receptor A2a (Homo sapiens, UniProt P29274) log10 of Ki for CCn1nnc(-c2sc(NC(=O)Cc3ccc(OC)c(OC)c3)nc2-c2ccccc2)n1 -1.35
